Target: HsMetAP1b (Homo sapiens, UniProt P53582)
Construct: made in house
Test: MetAP enzyme inhibition, Morrison Ki (Met-AMC fluorescence)
Type: biochemical, H. sapiens
Conditions: Morrison Ki method
measured_endpoint: Ki (µM)
State the answer as a number, implicitly in µM.

For the record COc1ccc2c(c1)/C(=N\NC(=O)c1cc(-c3cccc(Br)c3)n[nH]1)C(=O)N2 , what value of Ki is listed for HsMetAP1b (Homo sapiens, UniProt P53582)?
15.2

For the record O=C1Nc2cc(Cl)c(F)cc2/C1=N\NC(=O)c1cc(-c2cccc(Br)c2)n[nH]1 , what value of Ki is listed for HsMetAP1b (Homo sapiens, UniProt P53582)?
172

For the record O=C1Nc2ccc(F)cc2/C1=N\NC(=O)c1cc(-c2cccc(Br)c2)n[nH]1 , what value of Ki is listed for HsMetAP1b (Homo sapiens, UniProt P53582)?
632

For the record O=C1Nc2cc(Cl)ccc2/C1=N\NC(=O)c1cc(-c2cccc(Br)c2)n[nH]1 , what value of Ki is listed for HsMetAP1b (Homo sapiens, UniProt P53582)?
332

====

measured_endpoint: melting point

Reported melting point for O=C1Nc2cc(F)ccc2/C1=N\NC(=O)c1cc(-c2cccc(Br)c2)n[nH]1 : what is it?
228 to 230 °C

Reported melting point for O=C1Nc2cc(Cl)ccc2/C1=N\NC(=O)c1cc(-c2cccc(Br)c2)n[nH]1 : what is it?
182 to 185 °C

Reported melting point for O=C1Nc2cc([N+](=O)[O-])ccc2/C1=N\NC(=O)c1cc(-c2cccc(Br)c2)n[nH]1 : what is it?
225 to 228 °C

Reported melting point for O=C1Nc2ccccc2/C1=N\NC(=O)c1cc(-c2cccc(Br)c2)n[nH]1 : what is it?
218 to 221 °C

Reported melting point for O=C1Nc2ccc(Cl)cc2/C1=N\NC(=O)c1cc(-c2cccc(Br)c2)n[nH]1 : what is it?
217 to 220 °C

Reported melting point for O=C1Nc2ccc(Br)cc2/C1=N\NC(=O)c1cc(-c2cccc(Br)c2)n[nH]1 : what is it?
230 to 233 °C

Reported melting point for Cc1cc(C)c2c(c1)/C(=N\NC(=O)c1cc(-c3cccc(Br)c3)n[nH]1)C(=O)N2 : what is it?
257 to 260 °C

Reported melting point for O=C1Nc2cc(Cl)c(F)cc2/C1=N\NC(=O)c1cc(-c2cccc(Br)c2)n[nH]1 : what is it?
191 to 194 °C

Reported melting point for O=C1Nc2c(Cl)cccc2/C1=N\NC(=O)c1cc(-c2cccc(Br)c2)n[nH]1 : what is it?
205 to 208 °C

Reported melting point for COc1ccc2c(c1)NC(=O)/C2=N/NC(=O)c1cc(-c2cccc(Br)c2)n[nH]1 : what is it?
228 to 230 °C

Reported melting point for COc1ccc2c(c1)/C(=N\NC(=O)c1cc(-c3cccc(Br)c3)n[nH]1)C(=O)N2 : what is it?
245 to 248 °C

Reported melting point for Cc1ccc2c(c1)/C(=N\NC(=O)c1cc(-c3cccc(Br)c3)n[nH]1)C(=O)N2 : what is it?
209 to 213 °C

Reported melting point for O=C1Nc2c(cccc2[N+](=O)[O-])/C1=N\NC(=O)c1cc(-c2cccc(Br)c2)n[nH]1 : what is it?
215 to 218 °C

====

Test system: P. aeruginosa
Assay: Growth inhibition screening (broth dilution)
Type: cell-based, Pseudomonas aeruginosa
Conditions: Pseudomonas aeruginosa
Description: In vitro screening of the compounds (PS1–14) was performed to assess the antibacterial activity against three Gram-positive (Staphylococcus aureus, Enterococcus faecalis and Bacillus subtilis,) and three Gram-negative (Pseudomonas aeruginosa, Klebsiella pneumonia and Escherichia coli) bacterial strains using the standard NCCLS broth dilution assay. […] After incubation, the growth was measured by turbidity of the culture at 590 nm by spectrophotometer.
measured_endpoint: inhibition at 250 µg/mL (%)
State the answer as a number, implicitly in %.

Reported inhibition at 250 µg/mL for Cc1cc(C)c2c(c1)/C(=N\NC(=O)c1cc(-c3cccc(Br)c3)n[nH]1)C(=O)N2 : what is it?
90

Reported inhibition at 250 µg/mL for Cc1ccc2c(c1)/C(=N\NC(=O)c1cc(-c3cccc(Br)c3)n[nH]1)C(=O)N2 : what is it?
87

Reported inhibition at 250 µg/mL for O=C1Nc2c(Cl)cccc2/C1=N\NC(=O)c1cc(-c2cccc(Br)c2)n[nH]1 : what is it?
95

Reported inhibition at 250 µg/mL for O=C1Nc2c(cccc2[N+](=O)[O-])/C1=N\NC(=O)c1cc(-c2cccc(Br)c2)n[nH]1 : what is it?
100

Reported inhibition at 250 µg/mL for O=C1Nc2ccc(Cl)cc2/C1=N\NC(=O)c1cc(-c2cccc(Br)c2)n[nH]1 : what is it?
100

Reported inhibition at 250 µg/mL for O=C(O)c1cn(C2CC2)c2cc(N3CCNCC3)c(F)cc2c1=O [CIP, Ciprofloxacin, reference compound] : what is it?
100

Reported inhibition at 250 µg/mL for O=C1Nc2ccccc2/C1=N\NC(=O)c1cc(-c2cccc(Br)c2)n[nH]1 : what is it?
4

====

Molecular target: EfMetAP1a (Enterococcus faecalis)
Sequence (Q832M5 entry or part of it): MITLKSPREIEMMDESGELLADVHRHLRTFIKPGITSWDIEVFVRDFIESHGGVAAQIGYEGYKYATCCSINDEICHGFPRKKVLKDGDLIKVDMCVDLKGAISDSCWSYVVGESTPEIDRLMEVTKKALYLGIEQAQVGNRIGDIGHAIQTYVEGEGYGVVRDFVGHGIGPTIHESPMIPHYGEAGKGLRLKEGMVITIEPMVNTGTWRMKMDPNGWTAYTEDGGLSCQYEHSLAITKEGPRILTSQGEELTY
Assay: MetAP enzyme inhibition, Morrison Ki (Met-AMC fluorescence)
Type: biochemical
Conditions: Morrison Ki method
So I've got a bunch of molecules here, and I need their pKi values.
On this scale, pKi is minus log10 of a concentration expressed in M (mol/L).

For the record O=C1Nc2cc(Cl)ccc2/C1=N\NC(=O)c1cc(-c2cccc(Br)c2)n[nH]1 , what value of pKi is listed for EfMetAP1a (Enterococcus faecalis)?
5.33

For the record O=C1Nc2cc(Cl)c(F)cc2/C1=N\NC(=O)c1cc(-c2cccc(Br)c2)n[nH]1 , what value of pKi is listed for EfMetAP1a (Enterococcus faecalis)?
5.78

For the record COc1ccc2c(c1)/C(=N\NC(=O)c1cc(-c3cccc(Br)c3)n[nH]1)C(=O)N2 , what value of pKi is listed for EfMetAP1a (Enterococcus faecalis)?
5.60

For the record O=C1Nc2ccc(F)cc2/C1=N\NC(=O)c1cc(-c2cccc(Br)c2)n[nH]1 , what value of pKi is listed for EfMetAP1a (Enterococcus faecalis)?
5.16

For the record O=C1Nc2ccccc2/C1=N\NC(=O)c1cc(-c2cccc(Br)c2)n[nH]1 , what value of pKi is listed for EfMetAP1a (Enterococcus faecalis)?
5.58

For the record COc1ccc2c(c1)NC(=O)/C2=N/NC(=O)c1cc(-c2cccc(Br)c2)n[nH]1 , what value of pKi is listed for EfMetAP1a (Enterococcus faecalis)?
5.49

====

Molecular target: SpMetAP1a (Streptococcus pneumoniae, UniProt Q8DPV1)
Sequence (Q8DPV1 entry or part of it): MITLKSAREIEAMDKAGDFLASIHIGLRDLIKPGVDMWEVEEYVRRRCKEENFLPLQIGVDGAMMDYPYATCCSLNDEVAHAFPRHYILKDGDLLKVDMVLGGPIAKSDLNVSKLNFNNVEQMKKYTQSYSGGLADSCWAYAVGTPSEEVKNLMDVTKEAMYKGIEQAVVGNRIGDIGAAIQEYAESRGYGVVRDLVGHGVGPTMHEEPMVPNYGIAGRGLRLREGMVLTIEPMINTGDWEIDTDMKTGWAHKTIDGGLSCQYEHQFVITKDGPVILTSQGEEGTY
pKi: −log10 of the molar value.
# binarize pKi: threshold 6 inclusive, high side true (1), low side false (0)

Item O=C1Nc2ccccc2/C1=N\NC(=O)c1cc(-c2cccc(Br)c2)n[nH]1 with pKi of 6 or above?
false (0)

Item O=C1Nc2cc(Cl)c(F)cc2/C1=N\NC(=O)c1cc(-c2cccc(Br)c2)n[nH]1 with pKi of 6 or above?
false (0)

Item Cc1ccc2c(c1)/C(=N\NC(=O)c1cc(-c3cccc(Br)c3)n[nH]1)C(=O)N2 with pKi of 6 or above?
false (0)

Item O=C1Nc2cc([N+](=O)[O-])ccc2/C1=N\NC(=O)c1cc(-c2cccc(Br)c2)n[nH]1 with pKi of 6 or above?
true (1)

Item O=C1Nc2cc(Cl)ccc2/C1=N\NC(=O)c1cc(-c2cccc(Br)c2)n[nH]1 with pKi of 6 or above?
false (0)

====

So I've got a bunch of compounds here, and I need their MIC values.
Test system: K. pneumoniae
Assay: Minimum inhibitory concentration (broth dilution)
Format: cell-based, Klebsiella pneumonia
Settings: Klebsiella pneumoniae, alone, read-out: MIC
State the answer as a number, implicitly in µg/mL.

For the record CC1(C)S[C@@H]2[C@H](NC(=O)[C@H](N)c3ccccc3)C(=O)N2[C@H]1C(=O)O [AMP, ampicillin, reference compound] , what value of MIC is listed for K. pneumoniae?
2

For the record O=C(O)c1cn(C2CC2)c2cc(N3CCNCC3)c(F)cc2c1=O [CIP, Ciprofloxacin, reference compound] , what value of MIC is listed for K. pneumoniae?
8

For the record COc1ccc2c(c1)/C(=N\NC(=O)c1cc(-c3cccc(Br)c3)n[nH]1)C(=O)N2 , what value of MIC is listed for K. pneumoniae?
32

For the record O=C1Nc2cc(Cl)ccc2/C1=N\NC(=O)c1cc(-c2cccc(Br)c2)n[nH]1 , what value of MIC is listed for K. pneumoniae?
32

For the record O=C1Nc2cc(Cl)c(F)cc2/C1=N\NC(=O)c1cc(-c2cccc(Br)c2)n[nH]1 , what value of MIC is listed for K. pneumoniae?
64
